Data origin, for the record: patent US7192746B2

Tested on: α-isomaltosyl-transferring enzyme from Bacillus globisporus C11
assay: Specificity to transferring acceptor
Type: biochemical
Parameters: key: −: no saccharide transferred product was formed; ±: a saccharide-transferred product formed in an amount of less than one percent to the total sugars; +: a saccharide-transferred product was formed in an amount of over one percent but below 10% to the total sugars; ++: a saccharide-transferred product was formed in an amount of over 10% to the total sugars
run parameters: panose as saccharide donor, 10 units/g substrate, 3.2% (w/v), 30° C., pH 6.0, 24 hours
value kind: Product of transferring reaction, Enzyme of Strain C11

smiles_data=OC[C@@H](O)[C@@H](O)[C@@H](O)CO recorded_result=−
smiles_data=OC[C@H]1O[C@@H]2O[C@H]3[C@H](O)[C@@H](O)[C@@H](O[C@H]4[C@H](O)[C@@H](O)[C@@H](O[C@H]5[C@H](O)[C@@H](O)[C@@H](O[C@H]6[C@H](O)[C@@H](O)[C@@H](O[C@H]7[C@H](O)[C@@H](O)[C@@H](O[C@H]1[C@H](O)[C@H]2O)O[C@@H]7CO)O[C@@H]6CO)O[C@@H]5CO)O[C@@H]4CO)O[C@@H]3CO recorded_result=−

* * *

Tested on: α-isomaltosyl-transferring enzyme from Bacillus globisporus C9
assay: Action on saccharides (substrates, TLC)
Assay type: biochemical
Parameters: key: −: there was found no substrate change before and after the enzymatic reaction; +: there were found both the reduction of substrate and the formation of cyclotetrasaccharide after the enzymatic reaction
run parameters: 2 units/g substrate, 2% (w/v) substrate, 30° C., pH 6.0, 24 hours
value kind: Enzymatic action for forming cyclotetrasaccharide, Enzyme of Strain C9

compound="OC[C@H]1O[C@@H]2O[C@H]3[C@H](O)[C@@H](O)[C@@H](O[C@H]4[C@H](O)[C@@H](O)[C@@H](O[C@H]5[C@H](O)[C@@H](O)[C@@H](O[C@H]6[C@H](O)[C@@H](O)[C@@H](O[C@H]7[C@H](O)[C@@H](O)[C@@H](O[C@H]8[C@H](O)[C@@H](O)[C@@H](O[C@H]1[C@H](O)[C@H]2O)O[C@@H]8CO)O[C@@H]7CO)O[C@@H]6CO)O[C@@H]5CO)O[C@@H]4CO)O[C@@H]3CO [β-Cyclodextrin, β-cyclodextrin]" recorded_result=−
compound="OC[C@H]1O[C@H](O[C@H]2[C@H](O)[C@@H](O)[C@@H](O[C@H]3[C@H](O)[C@@H](O)[C@@H](O[C@H]4[C@H](O)[C@@H](O)C(O)O[C@@H]4CO)O[C@@H]3CO)O[C@@H]2CO)[C@H](O)[C@@H](O)[C@@H]1O (stereo partly shown) [Maltotetraose, maltotetraose]" recorded_result=−
compound="OC[C@H]1O[C@@H](OC[C@H]2OC(O)[C@H](O)[C@@H](O)[C@@H]2O)[C@H](O)[C@@H](O)[C@@H]1O (stereo partly shown) [Gentibiose, gentibiose]" recorded_result=−
compound="OC[C@H]1O[C@H](O[C@H]2[C@H](O)[C@@H](O)[C@H](O)O[C@@H]2CO)[C@H](O)[C@@H](O)[C@@H]1O [Maltose, maltose]" recorded_result=−

* * *

Tested on: α-isomaltosyl-transferring enzyme from Bacillus globisporus C9
assay: Specificity to transferring acceptor
Format: biochemical
Set-up: key: −: no saccharide transferred product was formed; ±: a saccharide-transferred product formed in an amount of less than one percent to the total sugars; +: a saccharide-transferred product was formed in an amount of over one percent but below 10% to the total sugars; ++: a saccharide-transferred product was formed in an amount of over 10% to the total sugars
run parameters: panose as saccharide donor, 10 units/g substrate, 3.2% (w/v), 30° C., pH 6.0, 24 hours
value kind: Product of transferring reaction, Enzyme of Strain C9

smiles_data=OC[C@@H](O)[C@@H](O)[C@H](O)[C@@H](O)CO recorded_result=−
smiles_data=OC[C@@H](O)[C@@H](O)[C@H](O)[C@H](O)CO recorded_result=−
smiles_data=O=C[C@@H](O)[C@@H](O)[C@H](O)[C@H](O)CO recorded_result=−
